Reference source for all entries: ChEMBL document CHEMBL1154754

test: Oral bioavailability in Sprague-Dawley rat at 10 mg/kg by LC/MS/MS method; format: ADME, organism-based; details: in vivo
REPORTED METRIC: bioavailability
Answers without a unit are incomplete; give the number and then its unit.

Input line: Please report the measured bioavailability for O=C1Nc2ccccc2-c2ccnc3[nH]cc(c23)C1c1ccc(O)cc1 (stereo unspecified)
Output line: 100%

###

experiment: Volume of distribution at steady state in CB17 mouse at 9 mg/kg, iv by LC/MS/MS method; assay type: ADME, organism-based; set-up: dose 9 mg/kg, route intravenous; conditions: in vivo, read-out: Vdss
REPORTED METRIC: Vd (L/kg)
Give the quantity in L/kg, number only.

Input line: Give me measured Vd, please, for this molecule: O=C1Nc2ccccc2-c2ccnc3[nH]cc(c23)C1c1ccc(O)cc1 (stereo unspecified)
Output line: 2.3

###

assay: Tmax in Sprague-Dawley rat at 10 mg/kg, po by LC/MS/MS method; type: ADME, organism-based; parameters: dose 10 mg/kg, route oral; conditions: in vivo
REPORTED METRIC: Tmax (h)
Your answer is read as h, so omit the unit and give the number.

Input line: Name the recorded Tmax of the compound listed here: O=C1Nc2ccccc2-c2ccnc3[nH]cc(c23)C1c1ccc(O)cc1 (stereo unspecified)
Output line: 3

###

experiment: Half life in Sprague-Dawley rat at 10 mg/kg, po by LC/MS/MS method; format: ADME, organism-based; design: dose 10 mg/kg, route oral; details: in vivo
REPORTED METRIC: half-life (h)
Reply numerically in h, unit not repeated.

Input line: Given O=C1Nc2ccccc2-c2ccnc3[nH]cc(c23)C1c1ccc(O)cc1 (stereo unspecified) , respond with its half-life.
Output line: 3.6

###

assay: Cmax in Sprague-Dawley rat at 10 mg/kg, po by LC/MS/MS method; assay type: ADME, organism-based; design: dose 10 mg/kg, route oral; settings: in vivo
REPORTED METRIC: Cmax (ng/mL)
# value in ng/mL; strip the unit string

Input line: Look up Cmax of O=C1Nc2ccccc2-c2ccnc3[nH]cc(c23)C1c1ccc(O)cc1 (stereo unspecified) and report it.
Output line: 1080
